experiment-description: chemical genetic growth profiling, strain panel (AID 1159580);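 note: tested at 20 µM; growth read once vehicle control cultures reached saturation at 30 °C; 1 = growth at the plate median or of vehicle wells; lower values mean less growth of the strain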
condition-notes: S. cerevisiae deletion strains, growth OD, locus YPR167C, strain met16
Screen size: about 5,500 compounds; about 2,000 (36%) were called active. Roughly 18% stayed inconclusive and do not appear here. Cut-off read from the data, not from the text of the source: active = normalized growth mostly below about 0.91 (no sharp cut-off); inconclusive = no clear call, values can overlap the other calls; inactive = mostly above about 0.92. Some of the results follow.
Assign a class; possible classes are active, inactive

*Q* So what was the verdict on C[C@@H]1CC(Cl)CC[C@H]1C(=O)OC(C)(C)C (some centres not stated) in this test?
*A* inactive

*Q* Name the outcome recorded for CCN(CC)Cc1ccc(Nc2ccnc3cc(Cl)ccc23)cc1O in the assay.
*A* inactive

*Q* Entry CCN(CC)C(=O)N1CCN(C)CC1 : call = ?
*A* inactive

*Q* For COc1ccc(C(c2ccc(OC)cc2)C(Cl)(Cl)Cl)cc1 , what call appears in the results of this test?
*A* inactive

*Q* Any idea what this test logged for O=C(OCC(O)CO)c1ccccc1Nc1ccnc2cc(Cl)ccc12 (configuration not stated) ?
*A* inactive

*Q* Status in this test for O=C1C(Cl)=C(Cl)C(=O)C(Cl)=C1Cl ?
*A* active

*Q* What was the test verdict on N[C@@H](Cc1ccc(N(CCCl)CCCl)cc1)C(=O)O ?
*A* inactive

*Q* Could you check what this test reported for Clc1ccc(C(c2ccc(Cl)cc2)C(Cl)(Cl)Cl)cc1 ?
*A* inactive

*Q* # lookup: test call for CN1C2CCC1CC(OC(c1ccccc1)c1ccccc1)C2 (configuration not stated)
*A* inactive

*Q* Call for entry CC(C)NCC(O)COc1cccc2[nH]ccc12 (configuration not stated) :
*A* inactive

*Q* # outcome recorded in this test, key = CN1C2CCC1CC(OC(c1ccccc1)c1ccccc1N)C2 (configuration not stated)
*A* inactive

*Q* Called result for CN1C2C[C@H](OC(=O)[C@H](CO)c3ccccc3)C[C@H]1[C@@H](O)C2
*A* inactive

====

experiment-description: chemical genetic growth profiling, strain panel (AID 1159580)
condition-notes: S. cerevisiae deletion strains, growth OD, locus YGL240W, strain doc1, hits give low values
The whole screen tested about 5,500 compounds, of which about 2,000 (36%) were called active. About 18% were inconclusive and are not listed. This is one part of the list.
Could you please report measured normalized growth for the items listed next?
Just the number.

*Q* Read the entry O=C(O[C@@H]1Cc2c(O)cc(O)cc2O[C@@H]1c1cc(O)c(O)c(O)c1)c1cc(O)c(O)c(O)c1 and write its reported normalized growth.
*A* 0.961

*Q* Tell me its normalized growth given O=C(Oc1cc(O)cc2c1C[C@@H](OC(=O)c1cc(O)c(O)c(O)c1)[C@@H](c1cc(O)c(O)c(O)c1)O2)c1cc(O)c(O)c(O)c1 as the entry.
*A* 1.05

*Q* Fill in normalized growth for record O=C(O[C@@H]1Cc2c(O)cc(O)cc2O[C@@H]1c1ccc(O)c(O)c1)c1cc(O)c(O)c(O)c1
*A* 1.04

*Q* Fill in normalized growth for record CC(=O)Oc1cc(OC(C)=O)c2c(c1)O[C@H](c1ccc(OC(C)=O)c(OC(C)=O)c1)[C@@H](OC(C)=O)C2
*A* 1

====

I'd appreciate it if you could supply normalized growth values for the items below.
experiment-description: chemical genetic growth profiling, strain panel (AID 1159580);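 note: tested at 20 µM; growth read once vehicle control cultures reached saturation at 30 °C; 1 = growth at the plate median or of vehicle wells; lower values mean less growth of the strain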
condition-notes: S. cerevisiae deletion strains, growth OD, locus YDL134C, strain PPH21, hits give low values
The campaign covered roughly 5,500 compounds. About 2,000 (36%) were called active. Inconclusive results (about 18%) are left out. Some of the results follow.
Write the value as a bare number.

*Q* Fill in reported normalized growth for this entry: C[C@@H]1O[C@@H](O[C@H]2[C@H](Oc3cc(O)c4c(=O)cc(-c5ccc(O)cc5)oc4c3)O[C@H](CO)[C@@H](O)[C@@H]2O)[C@H](O)[C@H](O)[C@H]1O
*A* 1.07

*Q* # return recorded normalized growth for input CN(C)CCN(Cc1ccccc1)c1ccccn1
*A* 1

*Q* Specify measured normalized growth for CCCCCCC(C)OC(=O)COc1cc(Cl)c(Cl)cc1Cl (centres undefined) .
*A* 1.01

*Q* Identify measured normalized growth corresponding to CC(C)(C)S(=O)(=O)/C(C#N)=C/c1ccc(F)cc1F
*A* 1.01

*Q* Give reported normalized growth value for CC1(C)S[C@@H]2[C@H](NC(=O)[C@H](N)c3ccccc3)C(=O)N2[C@H]1C(=O)O
*A* 1.01

*Q* Give the value of normalized growth reported for the following: S=c1nc2[nH]c3ccccc3c2n[nH]1
*A* 0.973

*Q* Fill in reported normalized growth for this entry: Cc1ccc(S(=O)(=O)NC(=O)NN2CCCCCC2)cc1
*A* 0.987

*Q* Quick one: give measured normalized growth for C=C[C@@](C)(O)CCC1C(=C)C[C@H](O)C2C(C)(C)CCCC12C (some centres undefined)
*A* 1.01

*Q* Could you please provide reported normalized growth for COC(=O)C[C@H]1C2(C)CC34OC5(C)O[C@@]6([C@H](OC)C(OC(=O)C(C)C)[C@]7(C)C(/C(=C(/OC)C(C)C)C(=O)O[C@H]7c7ccoc7)[C@@]6(O5)[C@H](OC)[C@@]3(OC)C2OC(C)=O)[C@]14C (some centres undefined) ? Thanks!
*A* 1.01

====

experiment-description: chemical genetic growth profiling, strain panel (AID 1159580);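 note: tested at 20 µM; growth read once vehicle control cultures reached saturation at 30 °C; 1 = growth at the plate median or of vehicle wells; lower values mean less growth of the strain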
condition-notes: S. cerevisiae deletion strains, growth OD, locus YGL167C, strain pmr1, hits give low values
Hit rate of the full screen: of about 5,500 compounds, about 2,000 (36%) were called active. Not shown: some 18% with an inconclusive outcome. This is one part of the list.
readout-name: normalized growth

*Q* Read the entry COc1cc([C@@H]2c3cc4c(cc3[C@@H](O)C3COC(=O)C32)OCO4)cc(OC)c1O (stereo not given in full) and write its reported normalized growth.
*A* 0.975 (inactive)

*Q* In one line, give reported normalized growth of the entry COc1cc([C@@H]2c3cc4c(cc3C(OC3O[C@@H]5COC(C)O[C@H]5[C@H](O)[C@H]3O)C3COC(=O)[C@@H]32)OCO4)cc(OC)c1O (stereo not given in full) .
*A* 1.05 (inactive)

*Q* Query normalized growth for CC(=O)O[C@H]1C[C@@H](OC(C)=O)C(C)(C)C2CC(=O)[C@]3(C)C(CC[C@@]4(C)[C@H](C(=O)O)OC(=O)C5OC543)[C@]21C (stereo not given in full)
*A* 0.993 (inactive)

*Q* Return reported normalized growth. Input compound: CCCCC/C=C/CCC(=O)N[C@H]1[C@H](Oc2c3cc4cc2Oc2ccc(cc2Cl)[C@@H](O[C@@H]2O[C@H](CO)[C@@H](O)[C@H](O)[C@H]2NC(C)=O)[C@@H]2NC(=O)[C@H](NC(=O)[C@@H]4NC(=O)[C@H]4NC(=O)C(Cc5ccc(c(Cl)c5)O3)NC(=O)[C@H](N)c3ccc(O)c(c3)Oc3cc(O)cc4c3)c3ccc(O)c(c3)-c3c(OC4O[C@H](CO)[C@@H](O)[C@H](O)[C@@H]4O)cc(O)cc3[C@@H](C(=O)O)NC2=O)O[C@H](CO)[C@@H](O)[C@@H]1O (stereo not given in full)
*A* 0.993 (inactive)

*Q* Quote normalized growth reported for CCOC(=O)n1ccn(C)c1=S please.
*A* 0.97 (inactive)

====

experiment-description: chemical genetic growth profiling, strain panel (AID 1159580);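 note: tested at 20 µM; growth read once vehicle control cultures reached saturation at 30 °C; 1 = growth at the plate median or of vehicle wells; lower values mean less growth of the strain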
condition-notes: S. cerevisiae deletion strains, growth OD, locus YIL125W, strain kgd1, hits give low values
The whole screen tested about 5,500 compounds, of which about 2,000 (36%) were called active. About 18% were inconclusive and are not listed. The list shows a part of the results.
readout-name: normalized growth
Reply briefly: the number, and no unit.

*Q* Specify measured normalized growth for CC(=O)Oc1cc(OC(C)=O)c2c(c1)O[C@H](c1ccc(OC(C)=O)c(OC(C)=O)c1)[C@@H](OC(C)=O)C2 .
*A* 0.975

*Q* Supply recorded normalized growth for Cc1ccccc1C(OCCN(C)C)c1ccccc1 (stereo not drawn) here.
*A* 0.994

*Q* Fill in reported normalized growth for this entry: CCC(C)C(=O)O[C@@H]1C[C@@]2(C)[C@H](c3ccoc3)OC(=O)CC23OC2(C)O[C@]14[C@]1(C)[C@@H](CC(=O)OC)C5(C)CC1(O)[C@](O)(C5OC(=O)C1(C)OC1C)[C@@H](OC(C)=O)[C@]34O2 (stereo partly drawn)
*A* 1.02

*Q* Read the entry CCC1(O)CC(OC2CC(N(C)C)C(OC3CC(O)C(OC4CCC(=O)C(C)O4)C(C)O3)C(C)O2)c2c(cc3c(c2O)C(=O)c2c(O)cccc2C3=O)C1C(=O)OC (stereo not drawn) and write its reported normalized growth.
*A* 1

*Q* Give normalized growth for the following molecule: COc1c(N2CCNC(C)C2)c(F)cc2c(=O)c(C(=O)O)cn(C3CC3)c12 (stereo not drawn)
*A* 1

*Q* Specify normalized growth for CCn1cc(C(=O)O)c(=O)c2cc(F)c(N3CCNC(C)C3)c(F)c21 (stereo not drawn) and stop.
*A* 0.998

*Q* Using the record for O=C1NCC2(CCN(CCc3ccccc3)CC2)O1 , state its measured normalized growth.
*A* 0.998

*Q* State its normalized growth: CCn1cc(C(=O)O)c(=O)c2cc(F)c(N3CCNCC3)nc21
*A* 1.01

*Q* Report measured normalized growth; entry is O=C(O[C@@H]1Cc2c(O)cc(O)cc2O[C@@H]1c1cc(O)c(O)c(O)c1)c1cc(O)c(O)c(O)c1
*A* 1

*Q* For the molecule NCCCS(=O)(=O)O , give its reported normalized growth.
*A* 0.981

*Q* Complete the entry with normalized growth for CC[C@@]1(O)C[C@H](O[C@H]2C[C@H](N(C)C)[C@H](O)[C@H](C)O2)c2c(cc3c(c2O)C(=O)c2c(O)ccc(O)c2C3=O)[C@H]1C(=O)OC
*A* 0.959

*Q* Name the recorded normalized growth of the molecule listed here: CCN(CC)C(=O)N1CCN(C)CC1
*A* 1

*Q* In one line, give reported normalized growth of the entry CC1CCc2cc(F)cc3c(=O)c(C(=O)O)cn1c23 (stereo not drawn) .
*A* 0.985

*Q* Using the record for CC1COc2c(N3CCN(C)CC3)c(F)cc3c(=O)c(C(=O)O)cn1c23 (stereo not drawn) , state its measured normalized growth.
*A* 1.01

*Q* Supply measured normalized growth of CN1CCC(OC(c2ccccc2)c2ccccc2)CC1 in your reply.
*A* 0.994

*Q* Consider the molecule CN(C)CCOC(c1ccc(Cl)cc1)c1ccccn1 (stereo not drawn) . State its measured normalized growth.
*A* 0.995

*Q* Output measured normalized growth for this item: O=C(O[C@@H]1Cc2c(O)cc(O)cc2O[C@@H]1c1ccc(O)c(O)c1)c1cc(O)c(O)c(O)c1
*A* 1

*Q* # return recorded normalized growth for entry O=C(Oc1cc(O)cc2c1C[C@@H](OC(=O)c1cc(O)c(O)c(O)c1)[C@@H](c1cc(O)c(O)c(O)c1)O2)c1cc(O)c(O)c(O)c1
*A* 0.958
